# targetEntity: Hexose transporter 1 (Plasmodium falciparum) (UniProt O97467)
# protocolDescription: ST_JUDE_LEISH: Cytotoxicity at 2uM final concentration against transgenic Leishmania Mexicana promastigotes LmPfHT that are glucose transport deficient and complemented with the Plasmodium falciparum hexose transporter. Activity is measured by DNA content using SYBR green in vitro
# Format: functional

molecule	targetEntity	inhibition
O=C(NCc1cccc(C(F)(F)F)c1)[C@@H]1CCCN1C(=O)c1ccc(O)c(-c2ccc(Cl)c(Cl)c2)c1	Hexose transporter 1 (Plasmodium falciparum) (UniProt O97467)	-0.25%
CC(C)(C)c1ccc(C(=O)NC2CCC(CCN3CCc4ccc(S(C)(=O)=O)cc4CC3)CC2)cc1C(F)(F)F (centres undefined)	Hexose transporter 1 (Plasmodium falciparum) (UniProt O97467)	2.06%
N=C(N)Nc1nc(-c2cccc(NC(=O)CCCCCCCON3C(N)=NC(N)=NC34CCCCC4)c2)cs1	Hexose transporter 1 (Plasmodium falciparum) (UniProt O97467)	4.13%
O=C(Nc1ccc(Cn2ncc(N3CCCNCC3)c(Cl)c2=O)cc1)Nc1ccc(F)cc1[N+](=O)[O-]	Hexose transporter 1 (Plasmodium falciparum) (UniProt O97467)	11.4%
COc1cc(OC)c2c(C)cc(NCCCN3CCOCC3)nc2c1	Hexose transporter 1 (Plasmodium falciparum) (UniProt O97467)	0.95%
CCOC(=O)CCCc1cc(NC2CCN(C)CC2)nc(Nc2ccc(OC)cc2)n1	Hexose transporter 1 (Plasmodium falciparum) (UniProt O97467)	0.24%
c1cc(CNCCN2CCNCC2)cc(-c2cccc(-c3nc4ccccc4[nH]3)c2)c1	Hexose transporter 1 (Plasmodium falciparum) (UniProt O97467)	1.4%
O=C(/C=C/c1ccc(Cl)c(Cl)c1)NCCCCCCN1CCCN(C(=O)Nc2ccc(F)c(F)c2)CC1	Hexose transporter 1 (Plasmodium falciparum) (UniProt O97467)	0.44%
O=C(/C=C/c1ccc(Cl)c(Cl)c1)NCCCCCN1CCC(c2n[nH]c(-c3ccccc3)c2Br)CC1	Hexose transporter 1 (Plasmodium falciparum) (UniProt O97467)	-2.38%

---

# targetEntity: Glucose transporter (Leishmania mexicana)
# protocolDescription: ST_JUDE_LEISH: Cytotoxicity at 2uM final concentration against transgenic Leishmania Mexicana promastigotes LmGT2 that are glucose transport deficient and complemented with the L. Mexicana glucose transporter 2. Activity is measured by DNA content using SYBR green in vitro
# Assay type: functional
quantity: inhibition (%)

smi	targetEntity	quantity	experimentalValue
COc1ccc(CNc2nccc3ccc(-c4ccc5nccn5c4)cc23)cc1	Glucose transporter (Leishmania mexicana)	inhibition	-1.93
CC(C)(C)OC(=O)N1CCN(c2ccccc2NC(=O)c2cccc(C(F)(F)F)c2Oc2ccc(F)cc2)CC1	Glucose transporter (Leishmania mexicana)	inhibition	0.52
CC(=O)N(C)c1cccc(CNc2cc(C)nc(Nc3ccc(C)cc3)n2)c1	Glucose transporter (Leishmania mexicana)	inhibition	0.91
Oc1c(Cl)cc(-c2ccccc2)cc1CNC1CCCCC1	Glucose transporter (Leishmania mexicana)	inhibition	0.52
COCCCNc1sc(S(=O)(=O)c2ccccc2)nc1S(=O)(=O)c1ccc(Cl)cc1	Glucose transporter (Leishmania mexicana)	inhibition	1.01
Cc1ccc(NC(=O)c2ccc(CN3CCCN(Cc4cccc(O)c4)CC3)cc2)cc1C	Glucose transporter (Leishmania mexicana)	inhibition	4.65
COc1cc2c(cc1OCCN1CCC(N3CCCCC3)CC1)N(C(=O)/C=C/c1ccccc1OC(F)(F)F)CC2	Glucose transporter (Leishmania mexicana)	inhibition	3.58
CC(=O)N/N=C/[C@H](CCc1ccccc1)NC(=O)[C@H](CC(C)C)NC(=O)c1ccc(OCCN2CCOCC2)cc1	Glucose transporter (Leishmania mexicana)	inhibition	3.05
CCOc1cc2c(cc1S(=O)(=O)c1ccc(COc3ccc(C(F)(F)F)cc3)cc1)CCN(C)CC2	Glucose transporter (Leishmania mexicana)	inhibition	1.18
CC(=O)Nc1cccc(Nc2nccc(Nc3ccc(Oc4ccccc4)cc3)n2)c1	Glucose transporter (Leishmania mexicana)	inhibition	-0.82
O=C(Nc1ccc(-c2nc3ccccc3[nH]2)cc1)C1CCN(Cc2cccc(F)c2F)CC1	Glucose transporter (Leishmania mexicana)	inhibition	16
COC(=O)c1cccc(CNCc2cccc(-c3cccc(-c4nc5cc(C(F)(F)F)ccc5[nH]4)c3)c2)c1	Glucose transporter (Leishmania mexicana)	inhibition	-2.5
CC(C)(C)c1ccc(NC(=O)c2cccc(CN3CCCN(Cc4ccsc4)CC3)c2)cc1	Glucose transporter (Leishmania mexicana)	inhibition	1.41
COc1cccc(CC(=O)N2CCC(n3c(C)nc4ccc(C)cc43)CC2)c1	Glucose transporter (Leishmania mexicana)	inhibition	1.1
CC(C)N1CCN(C(=O)c2ccc(CN(C)CCCN3CCN(c4cccc(Cl)c4Cl)CC3)s2)CC1	Glucose transporter (Leishmania mexicana)	inhibition	0.8
CC(C)N1CCN(C(=O)c2ccc(CNCCCN3CCN(c4cccc(Cl)c4Cl)CC3)o2)CC1	Glucose transporter (Leishmania mexicana)	inhibition	-1.3
O=C(CCCCCNC(=O)c1ccc(O)c(-c2cccc(C(F)(F)F)c2)c1)NCCN1CCCCC1	Glucose transporter (Leishmania mexicana)	inhibition	0.5
CN1CCN(CCCN(Cc2cccc(-c3cccc(CNC4CCCC4)c3)c2)C(=O)/C=C/c2ccccc2)CC1	Glucose transporter (Leishmania mexicana)	inhibition	-2.44
Brc1ccsc1-c1nc(NC2CCN(Cc3ccccc3)CC2)no1	Glucose transporter (Leishmania mexicana)	inhibition	-0.38
